Target: Full length WRN protein (aa 2-1432) (Homo sapiens (Human), UniProt Q14191)
Sequence (Q14191 2-1432): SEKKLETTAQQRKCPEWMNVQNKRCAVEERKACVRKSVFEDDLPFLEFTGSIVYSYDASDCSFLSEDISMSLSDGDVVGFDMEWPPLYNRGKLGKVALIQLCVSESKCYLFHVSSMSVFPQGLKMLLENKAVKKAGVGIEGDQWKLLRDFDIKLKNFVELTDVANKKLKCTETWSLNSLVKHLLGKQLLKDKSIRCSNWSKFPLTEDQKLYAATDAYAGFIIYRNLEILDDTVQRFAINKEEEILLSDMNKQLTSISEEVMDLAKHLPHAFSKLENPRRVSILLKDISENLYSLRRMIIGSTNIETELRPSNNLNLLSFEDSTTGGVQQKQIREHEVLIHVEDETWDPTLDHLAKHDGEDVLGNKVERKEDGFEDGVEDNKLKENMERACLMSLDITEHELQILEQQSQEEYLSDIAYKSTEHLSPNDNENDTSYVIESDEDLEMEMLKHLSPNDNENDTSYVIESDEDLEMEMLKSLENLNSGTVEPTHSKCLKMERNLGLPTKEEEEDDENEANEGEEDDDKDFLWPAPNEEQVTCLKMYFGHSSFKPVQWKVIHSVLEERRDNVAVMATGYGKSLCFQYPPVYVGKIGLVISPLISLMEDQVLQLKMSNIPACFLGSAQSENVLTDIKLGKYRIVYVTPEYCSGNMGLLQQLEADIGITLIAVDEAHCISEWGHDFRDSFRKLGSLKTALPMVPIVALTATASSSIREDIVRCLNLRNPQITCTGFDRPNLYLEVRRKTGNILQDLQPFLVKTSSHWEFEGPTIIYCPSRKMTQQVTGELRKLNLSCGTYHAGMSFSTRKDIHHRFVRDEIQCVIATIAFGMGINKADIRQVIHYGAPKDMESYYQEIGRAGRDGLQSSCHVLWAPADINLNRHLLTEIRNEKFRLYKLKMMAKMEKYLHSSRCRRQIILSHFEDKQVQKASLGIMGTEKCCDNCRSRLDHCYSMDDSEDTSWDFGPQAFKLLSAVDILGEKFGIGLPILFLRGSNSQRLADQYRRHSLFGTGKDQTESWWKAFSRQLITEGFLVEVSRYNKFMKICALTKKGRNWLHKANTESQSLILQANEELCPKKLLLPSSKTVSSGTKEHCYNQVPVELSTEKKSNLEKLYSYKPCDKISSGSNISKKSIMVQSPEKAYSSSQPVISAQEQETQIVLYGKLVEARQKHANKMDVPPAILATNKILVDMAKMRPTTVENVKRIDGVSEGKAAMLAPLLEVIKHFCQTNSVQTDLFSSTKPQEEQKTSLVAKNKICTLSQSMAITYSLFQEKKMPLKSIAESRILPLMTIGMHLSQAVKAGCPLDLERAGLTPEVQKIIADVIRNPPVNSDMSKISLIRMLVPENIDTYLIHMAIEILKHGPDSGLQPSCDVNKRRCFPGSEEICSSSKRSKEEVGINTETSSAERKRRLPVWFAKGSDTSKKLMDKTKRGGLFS
Test: WRN ATPase ADP-Glo biochemical assay, Assay Format A (10 μM ATP)
Conditions: 0.25 nM WRN, 100 nM C6.18 ssDNA, 30 min preincubation, read-out: ATPase ADPGlo AC50 (uM)- Assay Format A
# AC50 values compiled below
assay metric: AC50

In [3]: df
Out[3]:
                                   molecule      observed_value
0  C=CC(=O)N1CCc2nn(-c3ccc(C(F)(F)F)nc3N)c3c2C(C1)N(C(=O)c1ccc(Br)c2[nH]c(C(F)F)nc12)CC3 (stereo not drawn)  0.0015 to 0.005 µM
1  C=CC(=O)N1CCc2nn(-c3ccc(C4CC4)cc3)c3c2C(C1)N(C(=O)c1c(N)cc(C(F)(F)F)nc1N)CC3 (stereo not drawn)         < 0.0015 µM
2  C=CC(=O)N1CC(OCC2=CCOCC2)c2nn(-c3ccc(C4CCC4)cc3)c3c2C(C1)N(C(=O)c1cnc(C(F)(F)F)cc1N)CC3 (stereo not drawn)         < 0.0015 µM
3  C=CC(=O)N1CCc2nn(-c3ccc(C4CCC4)cc3O)c3c2C(C1)N(C(=O)c1ccc(C(F)F)nc1N)CC3 (stereo not drawn)         < 0.0015 µM
4  C=CC(=O)N1CCc2nn(-c3ccc(C45CC(C4)C5)cc3)c3c2C(C1)N(C(=O)c1ccc(C(F)(F)F)c2[nH]ncc12)CC3 (stereo not drawn)  0.0015 to 0.005 µM
5  C=CC(=O)N1CCc2nn(-c3ccc(C4CCC4)cc3O)c3c2C(C1)N(C(=O)c1ccc(C(F)(F)F)c2[nH]ncc12)CC3 (stereo not drawn)         < 0.0015 µM

* * *

Molecular target: Full length WRN protein (aa 2-1432) (Homo sapiens (Human))
Assay: WRN ATPase ADP-Glo biochemical assay, Assay Format A (10 μM ATP)
Conditions: 0.25 nM WRN, 100 nM C6.18 ssDNA, 30 min preincubation, read-out: ATPase ADPGlo AC50 (uM)- Assay Format A
# AC50 values compiled below
assay metric: AC50

                                    compound      observed_value
 0  C=CC(=O)N1CCc2nn(-c3ccc(C4CC4)cc3)c3c2C(C1)N(C(=O)c1cnc(Br)cc1N)CC3 (centres unmarked) [Compound 166]         < 0.0015 µM
 1  C=CC(=O)N1CCc2nn(-c3ccc(C4CC4)cc3)c3c2C(C1)N(C(=O)c1cnc(C(F)(F)F)c(C#N)c1)CC3 (centres unmarked) [Compound 112]   0.005 to 0.015 µM
 2  C=CC(=O)N1CCc2nn(-c3ccc(C4CCC4)cc3O)c3c2C(C1)N(C(=O)c1ccc(OC(F)(F)F)cc1)CC3 (centres unmarked) [Compound 107]   0.005 to 0.015 µM
 3  C=CC(=O)N1CCc2nn(-c3ccc(C4CC4)cc3)c3c2C(C1)N(C(=O)c1ccc(C(F)(F)F)nc1O)CC3 (centres unmarked) [Compound 109]   0.005 to 0.015 µM
 4  C=CC(=O)N1CCc2nn(-c3ccc(C45CC(C4)C5)c(F)c3O)c3c2C(C1)N(C(=O)c1cnc(C(F)(F)F)c(O)c1)CC3 (centres unmarked) [Compound 101]  0.0015 to 0.005 µM
 5  C=CC(=O)N1CCc2nn(-c3ccc(C(C)C)cc3)c3c2C(C1)N(C(=O)c1ccc2c(cnn2C(F)(F)F)c1)CC3 (centres unmarked) [Compound 11]          > 0.055 µM
 6  C=CC(=O)N1CCc2nn(-c3ccc(C4CCC4)cc3O)c3c2C(C1)N(C(=O)c1ccc(C(F)(F)F)c2ncncc12)CC3 (centres unmarked) [Compound 242]  0.0015 to 0.005 µM
 7  C=CC(=O)N1CCc2nn(-c3ccc(C45CC(C4)C5)cc3)c3c2C(C1)N(C(=O)c1ccc(C(F)(F)F)nc1N)CC3 (centres unmarked) [Compound 152]         < 0.0015 µM
 8  C=CC(=O)N1CCc2nn(-c3ccc(CC(F)(F)F)cc3O)c3c2C(C1)N(C(=O)c1ccc(Br)c2[nH]cnc12)CC3 (centres unmarked) [Compound 2]         < 0.0015 µM
 9  C=CC(=O)N1CCc2nn(-c3ccc(C4CCC4)cc3O)c3c2C(C1)N(C(=O)c1cnc(C(F)(F)F)c2[nH]ncc12)CC3 (centres unmarked) [Compound 151]         < 0.0015 µM
10  C=CC(=O)N1CCc2nn(-c3ccc(C(C)C)cc3)c3c2C(C1)N(C(=O)c1ccc(Br)c2[nH]c(N4CCC4)nc12)CC3 (centres unmarked) [Compound 9]  0.0015 to 0.005 µM
11  C=CC(=O)N1CCc2nn(-c3ccc(C4CC4)cc3O)c3c2C(C1)N(C(=O)c1cc(F)c(C(F)(F)F)nc1N)CC3 (centres unmarked) [Compound 200]         < 0.0015 µM
12  COC/C=C/C(=O)N1CCc2nn(-c3ccc(C4CCC4)cc3O)c3c2C(C1)N(C(=O)c1cnc(C(F)(F)F)cc1N)CC3 (centres unmarked) [Compound 239]   0.005 to 0.015 µM
13  C=CC(=O)N1CCc2nn(-c3ccc(C4CC4)cc3)c3c2C(C1)N(C(=O)c1cnc(Cl)c(F)c1N)CC3 (centres unmarked) [Compound 181]         < 0.0015 µM
14  C=CC(=O)N1CCc2nn(-c3ccc(C4CCC4)cc3O)c3c2C(C1)N(C(=O)c1ccc(C(F)(F)F)nc1)CC3 (centres unmarked) [Compound 96]         < 0.0015 µM
15  C=CC(=O)N1CCc2nn(-c3ccc(C45CC(C4)C5)cc3)c3c2C(C1)N(C(=O)c1cnc(C(F)(F)F)cc1N)CC3 (centres unmarked) [Compound 133]         < 0.0015 µM
16  C=CC(=O)N1CCc2nn(-c3ccc(C4CC4)cc3O)c3c2C(C1)N(C(=O)c1cnc(C(F)(F)F)c(F)c1N)CC3 (centres unmarked) [Compound 194]  0.0015 to 0.005 µM
17  C=CC(=O)N1CCc2nn(-c3ccc(C4CC4)cc3O)c3c2C(C1)N(C(=O)c1ccc(Br)c2[nH]c(C(F)F)nc12)CC3 (centres unmarked) [Compound 143]         < 0.0015 µM
18  C=CC(=O)N1CCc2nn(-c3ccc(C4CC4)cc3O)c3c2C(C1)N(C(=O)c1cnc(OC(F)F)cc1N)CC3 (centres unmarked) [Compound 192]         < 0.0015 µM
19  C=CC(=O)N1CC(OC)c2nn(-c3ccc(C4CCC4)cc3)c3c2C(C1)N(C(=O)c1ccc(Br)c2[nH]cnc12)CC3 (centres unmarked) [Compound 27]         < 0.0015 µM
20  C=CC(=O)N1CCc2nc(-c3ccc(C(C)C)cc3)n3c2C(C1)N(C(=O)c1ccc(Br)c2[nH]cnc12)CC3 (centres unmarked) [Compound 38]         < 0.0015 µM
21  C=CC(=O)N1CCc2nn(-c3ccc(C4CCC4)cc3)c3c2C(C1)N(C(=O)c1cnc(C(F)(F)F)nc1N)CC3 (centres unmarked) [Compound 161]         < 0.0015 µM
22  C=CC(=O)N1CC(C)c2nn(-c3ccc(C(C)C)cc3O)c3c2C(C1)N(C(=O)c1ccc(Br)c2[nH]cnc12)CC3 (centres unmarked) [Compound 32]         < 0.0015 µM
23  C=CC(=O)N1CCc2nn(-c3ccc(C4CC4)cc3O)c3c2C(C1)N(C(=O)c1ccc(Br)c2[nH]cnc12)CC3 (centres unmarked) [Compound 5]         < 0.0015 µM
24  C=CC(=O)N1CCc2nn(-c3ccc(C4CCC4)cc3)c3c2C(C1)N(C(=O)c1ccc(Br)c2[nH]nc(N)c12)CC3 (centres unmarked) [Compound 158]         < 0.0015 µM
25  C=CC(=O)N1CCc2nn(-c3ccc(C4CC4)cc3)c3c2C(C1)N(C(=O)c1ccc(C2(C#N)CC2)nc1)CC3 (centres unmarked) [Compound 119]   0.015 to 0.055 µM
